# growth listing for each entry below
System: BT-549 breast
measurementDescription: NCI-60 one-dose screen, 48 h (100 = growth as untreated, 0 = no growth, -100 = all killed)
conditionContext: 10 µM unless noted
The panel holds about 83,000 compounds, 20% with a hit somewhere; the sample as a whole holds those more often.

molecule: CC(C(=O)n1cc(-c2ccccc2)c(-c2ccccc2)c1)c1ccccc1 (centres undefined)
targetOfAssay: BT-549 breast
unitAbbrev: %
growth: 117
//
molecule: O=c1oc2cc(OS(=O)(=O)c3ccccc3)c(Cl)cc2c2c1CCCCCC2
targetOfAssay: BT-549 breast
unitAbbrev: %
growth: 79.1
//
molecule: COc1ccc(OC)c(C(=O)c2oc3ccc(Br)cc3c2N)c1
targetOfAssay: BT-549 breast
unitAbbrev: %
growth: 27.8
//
molecule: COc1ccc(-c2cn[nH]c2-c2cc(OC)c3c(c2)OCO3)cc1
targetOfAssay: BT-549 breast
unitAbbrev: %
growth: 59.3
//
molecule: COc1ccc(/C(=N/O)c2cc(OC)c(OC)c(OC)c2)c(OC)c1N
targetOfAssay: BT-549 breast
unitAbbrev: %
growth: 36.2
//
molecule: COc1ccc2c(c1)NC(=O)CN2c1nc(NC2CC2)nc2ccccc12
targetOfAssay: BT-549 breast
unitAbbrev: %
growth: -17
//
molecule: C=C1C(=O)O[C@H]2[C@H]1CC/C(COC(=O)NCCc1ccc(OC)cc1)=C\CC[C@@]1(C)O[C@@H]21
targetOfAssay: BT-549 breast
unitAbbrev: %
growth: 8.9
//
molecule: Cc1ccnc2nc(C(=O)OCC(=O)Nc3ccc(-c4ccccc4)cc3)nn12
targetOfAssay: BT-549 breast
unitAbbrev: %
growth: 96.3
//
molecule: CC(C)[C@H](CO)Nc1nc(Nc2ccc(C(=O)NCCNS(=O)(=O)c3cccc4c(N(C)C)cccc34)c(Cl)c2)c2ncn(C(C)C)c2n1
targetOfAssay: BT-549 breast
unitAbbrev: %
growth: -37.9

---

Tested on: A498 renal
measurementDescription: NCI-60 one-dose screen, 48 h (100 = growth as untreated, 0 = no growth, -100 = all killed)
conditionContext: 10 µM unless noted
This is part of a sample that, as a whole, favours compounds with a hit. Of some 83,000 tested, about 20% had one in any assay.

structure: COc1ccccc1CNCCCN1C(=O)c2ccc3c4c(ccc(c24)C1=O)C(=O)N(CCCNCCCCNCCCCN)C3=O
unitAbbrev: %
growth: 9.03
--
structure: Cc1ccc(Nc2ncnc3c2sc2ncccc23)cc1
unitAbbrev: %
growth: 67
--
structure: O=C(CSc1nc(-c2ccc(Cl)cc2)cn1-c1ccc(Cl)cc1)c1ccc(Br)cc1
unitAbbrev: %
growth: 93.8
--
structure: COc1cccc(NC(=O)Cn2cc3c(=O)oc4ccccc4c3n2)c1
unitAbbrev: %
growth: 87.2
--
structure: COc1cc(/C=C/C(=O)c2ccccc2O)ccc1OCCCOc1cc2c(cc1OC)C(=O)N1CCC[C@H]1C=N2
unitAbbrev: %
growth: -68.4

---

System: MDA-MB-231 breast
measurementDescription: NCI-60 one-dose screen, 48 h
conditionContext: 10 µM unless noted
Description: Cells are grown in 96 well plates and exposed to the test compound for 48 hours. Compounds are tested at a single concentration, which is 10^-5 M for most compounds. The reported endpoint is percent growth (GI% or GIPRCNT), where numbers from 0 - 100% represent growth inhibition, and numbers from -100% - 0 represent cell death. For example, a value of 40 represents 60% growth inhibition. A value of 0 means no net growth occurred over the course of the experiment. […]
About 83,000 compounds went through this panel and 20% of them were active in at least one assay; those are over-represented in the sample as a whole. Active and inactive are the calls of the source. The calls were made as follows: active = growth percent below 10; inactive = the rest.
Possible outcomes: T = active, F = inactive

molecule: CCCCCCCCCCCCNC(=S)N/N=C/c1ccc(Cl)c(Cl)c1
targetOfAssay: MDA-MB-231 breast
discreteLabel: F
//
molecule: CC/C=C\C/C=C\C[C@H]1C/C=C2/C(=O)C=C[C@H]2C/C=C\CCC(=O)O1
targetOfAssay: MDA-MB-231 breast
discreteLabel: T
//
molecule: COc1cccc(NC(=O)Cn2cc3c(=O)oc4ccccc4c3n2)c1
targetOfAssay: MDA-MB-231 breast
discreteLabel: F
//
molecule: COc1cc(OC)c(C(=O)/C=C/c2cccc(C#N)c2)c(OC)c1
targetOfAssay: MDA-MB-231 breast
discreteLabel: F
//
molecule: O=C(CNC1CCCCC1)Nc1ccc(-c2nc3ccccc3s2)cc1
targetOfAssay: MDA-MB-231 breast
discreteLabel: F
//
molecule: CC[C@H](C)[C@@H]1NC(=O)[C@H]([C@@H](C)O)NC(=O)C(Cc2ccccc2)NC(=O)[C@@H]2CCCN2C(=O)C(C(C)C)NC(=O)C(Cc2ccccc2)NC(=O)CNC(=O)[C@@H]2CCCN2C1=O (stereo not given in full)
targetOfAssay: MDA-MB-231 breast
discreteLabel: F
//
molecule: COc1cc(C2C=C(C)N=C3SC(C)=NN32)cc(OC)c1OC (stereo not given)
targetOfAssay: MDA-MB-231 breast
discreteLabel: F
//
molecule: CCCCCCOc1ccc(C2(Cl)c3ccccc3N(C)c3ccccc32)cc1
targetOfAssay: MDA-MB-231 breast
discreteLabel: F
//
molecule: Cc1cc(C)c2c(=O)[nH]c(SCC(=O)Nc3cccc(S(=O)(=O)N(C)C)c3)nc2n1
targetOfAssay: MDA-MB-231 breast
discreteLabel: F
//
molecule: N#Cc1ccc(NC(=O)c2ccc3cccnc3c2O)cc1
targetOfAssay: MDA-MB-231 breast
discreteLabel: F
//
molecule: Cc1ccc(Oc2nc3ccccc3cc2-c2nnc(Cn3c(COc4ccccc4)nc4ccccc43)o2)cc1
targetOfAssay: MDA-MB-231 breast
discreteLabel: F
//
molecule: CCN1C(=O)N(CC)C2C1NN=c1s/c(=C\c3cccc(F)c3)c(=O)n12 (stereo not given)
targetOfAssay: MDA-MB-231 breast
discreteLabel: F
//
molecule: O=C(Nc1cc(C(F)(F)F)cc(C(F)(F)F)c1)Nc1ccc(OCc2nnc(-c3ccc(Cl)cc3)o2)c(F)c1
targetOfAssay: MDA-MB-231 breast
discreteLabel: T
//
molecule: Cc1ccc2c(c1)ncn2-c1ncnc2c1CC(C)c1ccccc1N2C (stereo not given)
targetOfAssay: MDA-MB-231 breast
discreteLabel: F
//
molecule: O=C1Nc2cc(Cl)ccc2Oc2cc(Oc3ccccc3)ccc21
targetOfAssay: MDA-MB-231 breast
discreteLabel: F
//
molecule: CCN(Cc1ccc(CN(CC)C(=O)C(Br)Br)cc1)C(=O)C(Br)Br
targetOfAssay: MDA-MB-231 breast
discreteLabel: F
//
molecule: CCOC(=O)C(Cc1ccccc1)n1c(O)c(C=Nc2ccc(C(=O)OCCN(CC)CC)cc2)sc1=O (stereo not given)
targetOfAssay: MDA-MB-231 breast
discreteLabel: F
//
molecule: CC(=O)C1CCC(C)=CC1=O (stereo not given)
targetOfAssay: MDA-MB-231 breast
discreteLabel: F
//
molecule: COC(=O)C(CC(=O)c1ccc(-c2ccccc2)cc1)c1ccccc1 (stereo not given)
targetOfAssay: MDA-MB-231 breast
discreteLabel: F
//
molecule: CCCCCCCCCCCCCCCCCCOc1cccc(CCOP(=O)(O)OCC[N+](C)(C)C)c1
targetOfAssay: MDA-MB-231 breast
discreteLabel: F

---

Tested on: PC-3 prostate
measurementDescription: NCI-60 one-dose screen, 48 h
conditionContext: 10 µM unless noted
Compounds without any hit were thinned out: in the full panel of roughly 83,000, 20% have a hit. Calls of active or inactive are those of the source. How the source made its calls: active means growth percent below 10; inactive means the rest.
Possible outcomes: yes (1) for active, no (0) for inactive

molecule: Clc1ccc(/C=C/c2nc(N3CCOCC3)c3nc(Cl)c(Cl)cc3n2)cc1
discreteLabel: no (0)
//
molecule: O=C1CCCCN1CCCCC#Cc1ccccc1C#Cc1ccc([N+](=O)[O-])cc1
discreteLabel: no (0)
//
molecule: O=C(/C=C/c1ccccc1)n1c(-c2ccc(Cl)cc2)nc2ccccc21
discreteLabel: yes (1)
//
molecule: CCCCNC(=O)NS(=O)(=O)c1ccc(N2N=C(c3ccc(C)cc3C)CC2c2ccc(OC)cc2)cc1 (centres undefined)
discreteLabel: no (0)
//
molecule: CCN1C(=O)N(CC)C2C1NN=c1s/c(=C\c3ccccn3)c(=O)n12 (centres undefined)
discreteLabel: no (0)
//
molecule: Cc1c(C2=NNC(c3ccc4c(c3)OCO4)C2)[n+]([O-])c2ccccc2[n+]1[O-] (centres undefined)
discreteLabel: no (0)
//
molecule: O=C(Nc1ccc(I)cc1)c1cc([N+](=O)[O-])ccc1O
discreteLabel: no (0)
//
molecule: CCN(CC)CCC(=O)c1cccc2ccccc12
discreteLabel: no (0)
//
molecule: COc1ccc(/C=C/c2cc(N3CCOCC3)c3cc(F)c(F)cc3n2)cc1OC
discreteLabel: no (0)
//
molecule: CCn1cc(C(=O)O)c(=O)c2cc(F)c(N3CCN(S(=O)(=O)c4ccc(Cl)cc4Cl)CC3)cc21
discreteLabel: yes (1)
//
molecule: O=[N+]([O-])c1ccc(S(=O)(=O)N2CCN(c3ccnc4cc(Cl)ccc34)CC2)c([N+](=O)[O-])c1
discreteLabel: no (0)
//
molecule: CCC1=C[C@@H]2CN(C1)Cc1c([nH]c3ccccc13)[C@@](C(=O)OC)(c1cc3c(cc1OC)N(C=O)[C@H]1[C@@](O)(C(=O)OC)[C@H](OC(C)=O)[C@]4(CC)[C@@H]5C[C@@H]5CN5CC[C@]31[C@@H]54)C2
discreteLabel: yes (1)
//
molecule: COc1ccc(-c2cn[nH]c2-c2cc(OC)c3c(c2)OCO3)cc1
discreteLabel: no (0)
//
molecule: COc1ccc2c(c1)C(C)Cc1c(N(C)C)ncnc1N2C (centres undefined)
discreteLabel: no (0)
//
molecule: CCOC(=O)C1=C(C)NC(=O)NC1c1ccc(OCC(=O)N/N=C/c2ccc(Cl)cc2)cc1 (centres undefined)
discreteLabel: no (0)
//
molecule: COc1cc(NC(=O)CCl)ccc(=O)c1
discreteLabel: no (0)
//
molecule: COC(=O)CCCCN=Cc1c(O)c(O)c(C(C)C)c2cc(C)c(-c3c(C)cc4c(C(C)C)c(O)c(O)c(C=NCCCCC(=O)OC)c4c3O)c(O)c12
discreteLabel: no (0)
//
molecule: Cc1ccc2c(c1)C(C)Cc1c(ncnc1-n1cnc3ccccc31)N2C (centres undefined)
discreteLabel: no (0)
//
molecule: CC(=O)Nc1ccc(S(=O)(=O)N2C(=O)CCC2C(=O)Nc2ccc(Br)cc2)cc1 (centres undefined)
discreteLabel: no (0)
